- target.or.test.system: integrin αIIbβ3 (Homo sapiens, UniProt P08514)
- test.details: competitive solid-phase binding assay with biotinylated fibronectin
Where no end group is shown, it is not given here.
measure.name: IC50

Prompt: Which IC50 reading was recorded for the binder GRGDS (not fully specified) [GRGDS-CNP 5% (7 peptides per CNP)] ?
Response: > 1000 nM
